Entries and their TGI values follow.
- Tested on: M14 melanoma
- assay.method.text: NCI tumour cell line growth inhibition, 48 h

Some solved cases for reference:
>>> test_result("C[n+]1c(-c2ccc(/C=C/C=N\\NC(=O)c3ccc(C(=O)N/N=C\\C=C\\c4ccc(-c5cn6ccccc6[n+]5C)cc4)cc3)cc2)cn2ccccc21")
"> 100 µM"
>>> test_result("CC(=O)OC1C(COC(=O)c2ccccc2)OC(Nc2ncc(-c3ccc(Br)cc3)s2)C(OC(=O)c2ccccc2)C1OC(=O)c1ccccc1 (configuration not stated)")
"> 100 µM"
>>> test_result("CC(=O)c1ccc2c(c1)CC1(C2)Cc2ccccc2C1=O (configuration not stated)")
"> 100 µM"
>>> test_result("C[C@]12CC[C@@H]3c4cc(I)c(O)cc4CC[C@H]3[C@@H]1CC[C@@H]2O")
"17.4 µM"
>>> test_result("C[C@H]1SC(c2ccc(Cl)cc2Cl)N(NC(=O)c2ccncc2)C1=O (some centres not stated)")
"69.9 µM"
>>> test_result("C=C1c2nc3ccccc3n2C=C(c2ccc(Cl)cc2)N1c1ccc(OC)cc1")
"21 µM"

TGI for COC(=O)C1(O)CC(=O)CCC1c1ccc(OC)cc1 (configuration not stated) ? > 100 µM

====

Entries and their TGI values follow.
- System: BT-549 breast
- assay.method.text: NCI tumour cell line growth inhibition, 48 h

Some solved cases for reference:
>>> test_result("COC1CC(OC2CCC3(C)C(=CCC4C3C(OC(C)=O)C(OC(=O)CC(C)C)C3(C)C(C(C)=O)CCC43O)C2)OC(C)C1OC1CC(OC)C(OC2CC(OC)C(OC3OC(C)C(OC4OC(CO)C(O)C(O)C4O)C(OC)C3O)C(C)O2)C(C)O1 (stereo not given)")
"> 75 µM"
>>> test_result("COc1ccc2c(c1)/C(=C/c1cc(OC)c(OC)c(OC)c1)C(=O)N2")
"> 100 µM"
>>> test_result("COc1ccc(N(C(=O)Nc2ccc(Cl)c(Cl)c2)C2c3cccn3C(=O)N2c2ccc(Cl)c(Cl)c2)cc1 (stereo not given)")
"> 100 µM"
>>> test_result("O=C1CSC2=NC3=C(COC/C3=C\\c3ccc(Br)cc3)C(c3ccc(Br)cc3)N12 (stereo not given)")
"> 100 µM"
>>> test_result("Cn1cc(C2=C(c3cn(C4CCN(Cc5ccccn5)CC4)c4ccccc34)C(=O)NC2=O)c2ccccc21")
"> 100 µM"
>>> test_result("COC(=O)C1=Nc2c(C)nn(-c3ccccc3)c2N=C(c2ccccc2)C1")
"> 10 µM"

TGI for CCOC(=O)c1nc2cc(C(F)(F)F)ccc2nc1Nc1ccc(C(=O)NC(C(=O)OCC)C(=O)OCC)cc1 ? 51.6 µM

TGI for COC(=O)C(/C(=N\O)C(=O)Nc1cccc(Cl)c1C)c1cnc2ccccc2n1 (stereo not given) ? > 100 µM

TGI for O=C(N/N=C/c1ccccc1O)c1ccccc1 ? > 100 µM

TGI for Nc1nn2c(=O)c3ccccc3nc2s1 ? 77.9 µM

====

Entries and their GI50 values follow.
- Tested on: T-47D breast
- assay.method.text: NCI tumour cell line growth inhibition, 48 h

>>> test_result("O=C(N[C@@H](C[Se][Se]C[C@H](NC(=O)c1ccc(Br)cc1F)C(=O)O)C(=O)O)c1ccc(Br)cc1F")
"> 100 µM"
>>> test_result("Cn1cc(C2=C(c3cn(C4CCN(Cc5ccccn5)CC4)c4ccccc34)C(=O)NC2=O)c2ccccc21")
"5.45 µM"
>>> test_result("C(=N\\Nc1nnn(Cc2ccccc2)n1)/c1ccccc1")
"4.04 µM"
>>> test_result("O=C(O)[C@@H](Cc1ccc2ccccc2c1)NC(=O)n1c2ccccc2c2ccccc21")
"11.6 µM"
>>> test_result("Cc1ccc(NC(=O)c2cc(S(=O)(=O)N3C(=O)NC(=O)NS3(=O)=O)c(S)cc2Cl)cc1")
"21.4 µM"
>>> test_result("Oc1ccccc1-c1nn(CNc2ccccc2Cl)c(=S)o1")
"13.5 µM"
>>> test_result("O=C1OCC2=C1C(c1ccccc1)c1cc3c(cc1N2CCO)OCO3 (stereo unspecified)")
"3.12 µM"
>>> test_result("C=C1C(=O)O[C@H]2[C@H]1CC/C(C=Nc1c(N)cc(C(F)(F)F)cc1Br)=C\\CC[C@@]1(C)O[C@@H]21")
"1.45 µM"

GI50 for CCCCCCCCCCCCCCCC[N+]1(C)CCOCC1 ? 4.68 µM

GI50 for CC(C)(C)OC(=O)NCCCCCCCn1c2c(c3ccccc3c1=O)C(=O)c1ccccc1-2 ? 16.4 µM

GI50 for C=C(CN(C)C)C(=O)c1ccccc1[N+](=O)[O-] ? 5.68 µM
